Target: T1, Human CXCR2 (human, UniProt P25025 1-360)
T1 sequence: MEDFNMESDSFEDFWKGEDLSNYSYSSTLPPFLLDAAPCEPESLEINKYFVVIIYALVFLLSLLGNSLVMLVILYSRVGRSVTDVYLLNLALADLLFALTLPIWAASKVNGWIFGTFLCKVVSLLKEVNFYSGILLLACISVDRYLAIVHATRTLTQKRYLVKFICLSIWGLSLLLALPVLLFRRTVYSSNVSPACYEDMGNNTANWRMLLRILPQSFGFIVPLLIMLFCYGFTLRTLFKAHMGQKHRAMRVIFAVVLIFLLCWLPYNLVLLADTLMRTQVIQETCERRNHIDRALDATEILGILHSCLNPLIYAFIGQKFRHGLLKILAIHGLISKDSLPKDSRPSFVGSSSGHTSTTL
Assay: cell-based or functional assay
Reported Endpoint: FLIPR IC50, GRO-α induced intracellular calcium release (nM)
Express your answer in nM, writing the number without its unit.

INPUT: If you can, please state the reported FLIPR IC50, GRO-α induced intracellular calcium release value of CXCR20028 (other, not shown: small tags and cut ends) EVQLVESGGGLVQPGGSLRLSCVASGSIVRINTMGWYRQTPGKQRELVADITSGGNINYIDAVKGRFTISRDNTKNTVYLQMNSLKPEDTAVYYCNAEIVVLVGVWTQRARTGNYWGQGTQVTVSSGGGGSGGGGSGGGGSGGGGSGGGGSGGGGSGGGGSEVQLVESGGGLVQAGGSLTLSCAVSGSTFRINTMGWYRRAPGKQRELVAARDRGGYINYVDSVKGRFTVSRDNAKPTMYLQMNSLKPEDTAVYYCHAGTQDRTGRNFDRWGQGTQVTVSS .
OUTPUT: 21.9

INPUT: Can you look up the measured FLIPR IC50, GRO-α induced intracellular calcium release of CXCR20022 (VHH, not shown: small tags and cut ends) EVQLVESGGGLVQAGGSLRLSCAASGRTFSDYAMGWFRQAPGKEREFVAAITWNGGRVFYTASVKGRFTISRDNAKNTMYLQMNSLKPEDTAVYYCAADKDRRTDYLGHPVAYWGQGTQVTVSSGGGGSGGGGSGGGGSGGGGSGGGGSGGGGSGGGGSEVQLVESGGGLVQAGGSLRLSCAASGRTFSDYAMGWFRQAPGKEREFVAAITWNGGRVFYTASVKGRFTISRDNAKNTMYLQMNSLKPEDTAVYYCAADKDRRTDYLGHPVAYWGQGTQVTVSS for me?
OUTPUT: 9.34

INPUT: Reported FLIPR IC50, GRO-α induced intracellular calcium release for CXCR20027 (bispecific antibody, not shown: small tags and cut ends) EVQLVESGGGLVQPGGSLRLSCVASGRIFSSNAMGWFRQAPGKEREFVAAITWRSGGSAYYADSAKGRFTISRDNAKNTVYLQMNSLKPEDTAVYYCAAGGSSWLSFPPDYWGQGTQVTVSSGGGGSGGGGSGGGGSGGGGSGGGGSGGGGSGGGGSEVQLVESGGGLVQAGGSLRLSCAASGRTFSDYAMGWFRQAPGKEREFVAAITWNGGRVFYTASVKGRFTISRDNAKNTMYLQMNSLKPEDTAVYYCAADKDRRTDYLGHPVAYWGQGTQVTVSS : what is it?
OUTPUT: 17.8
